Where these numbers come from: paper PMC9137512

assay: Free concentration and protein binding in spiked human serum samples (Table S5); conditions: human, serum, PB, S5a, serum of patient 1 (critically ill) spiked 200 mg/L, measured c 201 mg/L; calibration with sheep serum

Chem Smiles	fraction unbound
CN[C@H]1C(=O)N[C@@H]2Cc3ccc(cc3)Oc3cc4cc(c3O[C@@H]3O[C@H](C(=O)O)[C@@H](O)[C@H](O)[C@H]3NC(=O)CCCCCCCCC(C)C)Oc3ccc(cc3Cl)[C@@H](O)[C@@H]3NC(=O)[C@H](NC(=O)[C@@H]4NC(=O)[C@@H](NC2=O)c2cc(cc(O)c2Cl)Oc2cc1ccc2O)c1ccc(O)c(c1)-c1c(O[C@H]2O[C@H](CO)[C@@H](O)[C@H](O)[C@@H]2O)cc(O)cc1[C@@H](C(=O)NCCCN(C)C)NC3=O	0.04

###

experiment: Free concentration and protein binding in spiked human serum samples (Table S5); details: human, serum, PB, S5a, serum of patient 1 (critically ill) spiked 50 mg/L, measured c 53.5 mg/L; calibration with sheep serum

Chem Smiles	fraction unbound
CN[C@H]1C(=O)N[C@@H]2Cc3ccc(cc3)Oc3cc4cc(c3O[C@@H]3O[C@H](C(=O)O)[C@@H](O)[C@H](O)[C@H]3NC(=O)CCCCCCCCC(C)C)Oc3ccc(cc3Cl)[C@@H](O)[C@@H]3NC(=O)[C@H](NC(=O)[C@@H]4NC(=O)[C@@H](NC2=O)c2cc(cc(O)c2Cl)Oc2cc1ccc2O)c1ccc(O)c(c1)-c1c(O[C@H]2O[C@H](CO)[C@@H](O)[C@H](O)[C@@H]2O)cc(O)cc1[C@@H](C(=O)NCCCN(C)C)NC3=O	0.03

###

assay: Free concentration and protein binding in spiked human serum samples (Table S5); details: human, serum, PB, S5a, serum of patient 6 (critically ill) spiked 50 mg/L, measured c 50.4 mg/L; calibration with sheep serum

Compound	fraction unbound
CN[C@H]1C(=O)N[C@@H]2Cc3ccc(cc3)Oc3cc4cc(c3O[C@@H]3O[C@H](C(=O)O)[C@@H](O)[C@H](O)[C@H]3NC(=O)CCCCCCCCC(C)C)Oc3ccc(cc3Cl)[C@@H](O)[C@@H]3NC(=O)[C@H](NC(=O)[C@@H]4NC(=O)[C@@H](NC2=O)c2cc(cc(O)c2Cl)Oc2cc1ccc2O)c1ccc(O)c(c1)-c1c(O[C@H]2O[C@H](CO)[C@@H](O)[C@H](O)[C@@H]2O)cc(O)cc1[C@@H](C(=O)NCCCN(C)C)NC3=O [dalbavancin, Dalbavancin]	0.03

###

assay: Free concentration and protein binding in spiked human serum samples (Table S5); conditions: human, serum, PB, S5b, serum of 25 (healthy volunteer) spiked 200 mg/L, measured c 197 mg/L; calibration with human serum

Chem Smiles	fraction unbound
CN[C@H]1C(=O)N[C@@H]2Cc3ccc(cc3)Oc3cc4cc(c3O[C@@H]3O[C@H](C(=O)O)[C@@H](O)[C@H](O)[C@H]3NC(=O)CCCCCCCCC(C)C)Oc3ccc(cc3Cl)[C@@H](O)[C@@H]3NC(=O)[C@H](NC(=O)[C@@H]4NC(=O)[C@@H](NC2=O)c2cc(cc(O)c2Cl)Oc2cc1ccc2O)c1ccc(O)c(c1)-c1c(O[C@H]2O[C@H](CO)[C@@H](O)[C@H](O)[C@@H]2O)cc(O)cc1[C@@H](C(=O)NCCCN(C)C)NC3=O	0.03
